meta.source: patent US10710978B2

Examples of molecules with documented inhibition at 10 µM follow.
# study.target: MLKL (Homo sapiens (Human))
# Sequence (Q8NB16 whole entry): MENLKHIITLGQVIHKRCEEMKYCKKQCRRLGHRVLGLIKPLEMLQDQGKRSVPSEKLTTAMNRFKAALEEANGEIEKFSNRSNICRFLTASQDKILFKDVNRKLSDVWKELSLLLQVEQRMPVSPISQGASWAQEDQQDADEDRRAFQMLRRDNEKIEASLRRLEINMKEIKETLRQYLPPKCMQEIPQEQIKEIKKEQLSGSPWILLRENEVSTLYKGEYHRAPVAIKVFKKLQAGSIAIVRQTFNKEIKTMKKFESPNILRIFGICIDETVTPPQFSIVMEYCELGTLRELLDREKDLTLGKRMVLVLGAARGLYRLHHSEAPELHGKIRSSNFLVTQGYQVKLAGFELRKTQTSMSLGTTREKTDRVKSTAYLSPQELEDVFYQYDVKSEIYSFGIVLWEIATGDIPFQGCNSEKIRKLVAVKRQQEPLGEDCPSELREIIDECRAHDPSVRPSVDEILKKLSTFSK
# measurement.protocol: KiNativ assay
# Format: binding
# protocol.conditions: H929 live cell, read-out: inhibition (10 μM)
metric: inhibition at 10 µM (%)

INSERT INTO measurements (structure_as_smiles, result_number) VALUES
  ('Nc1ncc(-c2cccc3ncsc23)cc1-c1ccc2c(c1)CCNC2=O', 15.2),
  ('Nc1ncc(-c2ccc(NS(=O)(=O)C3CC3)cc2F)cc1-c1ccc2c(c1)CCNC2=O', 51.4),
  ('Nc1ncc(-c2ccc(NS(=O)(=O)C3CC3)cc2OC2CCCCC2)cc1-c1ccc2c(c1)CCNC2=O', 0.2),
  ('COc1cc(NS(=O)(=O)C2CC2)ccc1-c1cnc(N)c(-c2ccc3c(c2)CCNC3=O)c1', 8.2),
  ('Nc1ncc(-c2cccc([N+](=O)[O-])c2F)cc1-c1ccc2c(c1)CCNC2=O', 66.9),
  ('CN(C1CC1)S(=O)(=O)c1ccc(-c2cnc(N)c(-c3ccc4c(c3)CCNC4=O)c2)c(F)c1', 23.9);
